System: L1210 leukemia ip in BDF1 mice, survival T/C
Assay: NCI In Vivo Anticancer Drug Screen. Data for tumor model L1210 Leukemia (intraperitoneal) in B6D2F1 (BDF1) mice
Conditions: endpoint: mean survival time; dose: 200.0 mg/kg/injection; schedule: Q01DX009 (ip); vehicle: Klucel (hydroxypropylcellulose) (HPC); higher = longer survival
Protocol: The antitumor activity of compounds was measured in mice bearing transplantable tumors. Survival or tumor size were measured and the results are expressed as the measurement made in the treated group (T) divided by the measurement made in the vehicle treated control group (C). The tumor model used in this assay is L1210 Leukemia (intraperitoneal) in B6D2F1 (BDF1) mice
Toxic doses and inconclusive results are not listed.

molecule	assayed-system	T/C
Nc1ccccc1SC(CC(=O)c1ccccc1)c1cccc([N+](=O)[O-])c1 (stereo unspecified)	L1210 leukemia ip in BDF1 mice, survival T/C	87 % of control
CC(Cl)CN(CC(C)Cl)C(=O)Oc1ccc([N+](=O)[O-])cc1 (stereo unspecified)	L1210 leukemia ip in BDF1 mice, survival T/C	94 % of control
O=C(CNC(=O)Nc1ccc(Cl)c(Cl)c1)NNC(=O)Nc1ccc(Cl)c([N+](=O)[O-])c1	L1210 leukemia ip in BDF1 mice, survival T/C	97 % of control
C=CCOC(=O)C1CC(C(=O)OCC=C)C(C(=O)OCC=C)C1C(=O)OCC=C (stereo unspecified)	L1210 leukemia ip in BDF1 mice, survival T/C	92 % of control
O=S1(=O)CC(c2cccc3ccccc23)Nc2ccccc21 (stereo unspecified)	L1210 leukemia ip in BDF1 mice, survival T/C	95 % of control
O=C(O)C1CCCN(C(=O)OCc2ccccc2)C1 (stereo unspecified)	L1210 leukemia ip in BDF1 mice, survival T/C	97 % of control
O=C(Nc1ccc([N+](=O)[O-])cc1Cl)SCCSC(=O)Nc1ccc([N+](=O)[O-])cc1Cl	L1210 leukemia ip in BDF1 mice, survival T/C	94 % of control
CC(=O)N(c1ccccc1)c1ccccc1	L1210 leukemia ip in BDF1 mice, survival T/C	95 % of control
O=C(Nc1cccc(C(F)(F)F)c1)N1CCN(c2ccccc2)CC1	L1210 leukemia ip in BDF1 mice, survival T/C	96 % of control
O=C(Nc1ccccc1F)OCCOc1ccccc1Cl	L1210 leukemia ip in BDF1 mice, survival T/C	112 % of control
CCc1ccccc1NC(=O)Nc1ccccc1C(N)=O	L1210 leukemia ip in BDF1 mice, survival T/C	93 % of control
